- system: human MyD88 (human) (UniProt Q99836)
- assayProtocol: P3 phage display panning on plate-immobilised MyD88, after round 4, NGS
measuredEndpoint: NGS count (count)

             binder  measuredendpoint  numericreadout
0  NQWRNALTAAANLSGW         NGS count           28700
1  SENYATSPWALDELVL         NGS count            5490
2  FLSYRALEKRFGPIGQ         NGS count            3290

a. YYLDPSHLRKQSGEFG
b. YAFTGHLHRYLVQRGV
// select label with min value of measured NGS count from [ a , b ] Please identify the chosen entry by its label.
a

P. RKGDLISDELLIAIEE
Q. YTALTNSGFHTFRDND
R. AVDKETDKIQTPLKNA
S. DHHLDLPRGKAIKPEILG
Task field, ranking: reported NGS count, descending order. Submit the labels in the order that the ranking request calls for.
S, Q, R, P
(S: 26700 count, Q: 17600 count, R: 4790 count, P: 2450 count)

a. ESILNQLRRSSQSIAN
b. YNFISHLYDALHRNRI
c. EWIREQLRPALKERLP
Could you please order the items by NGS count, going from the lowest number to the highest? Submit the labels in the order that the ranking request calls for.
a, b, c

I. PEKDNGGENAFINNIV
II. NGHESEIIKEIVDTIV
Returns: the argument ( I or II ) having the larger NGS count. Please identify the chosen entry by its label.
II
